What melting point was measured for each of the following?

Query string: Report measured melting point; entry is O=C(/C=C/c1ccc(O)c(O)c1)NCCn1cc(-c2ccccc2)nn1 [16e]
Result string: 208 °C (dec.)

Query string: Report measured melting point; entry is Cc1ccc(-c2cn(CCNC(=O)/C=C/c3ccc(O)c(O)c3)nn2)cc1 [16f]
Result string: 220 °C (dec.)

Query string: Report measured melting point; entry is O=C(/C=C/c1ccc(O)c(O)c1)NCCn1cc(C2=CCCCC2)nn1 [16d]
Result string: 168 to 169 °C

Query string: Report measured melting point; entry is Cc1ccc(-c2cn(CCOC(=O)C=Cc3ccccc3)nn2)cc1
Result string: 139 to 140 °C

Query string: Report measured melting point; entry is O=C(/C=C/c1ccc(O)c(O)c1)OCCn1ccnn1 [15a]
Result string: 196 to 198 °C (dec.)

Query string: Report measured melting point; entry is O=C(/C=C/c1ccc(O)c(O)c1)NCCn1cc(C2CCCCC2)nn1 [16c]
Result string: 183 to 184 °C

Query string: Report measured melting point; entry is O=C(C=Cc1ccccc1)OCCn1cc(C2CCCCC2)nn1
Result string: 119 °C

Query string: Report measured melting point; entry is O=C(/C=C/c1ccc(O)c(O)c1)OCCn1cc(C2CCCCC2)nn1 [15c]
Result string: 191 °C (dec.)
